Items are presented alongside their recorded interaction score.
- study.target: T1, 4H481-AA
- T1 chain: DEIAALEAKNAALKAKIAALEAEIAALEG
- assay.summary: two-hybrid library CCmax;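 note: natural log of median RNA to DNA barcode read ratio; higher means stronger binding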
- measurement.setup: mean of both orientations
Please give the numeric answer without any surrounding text.

DENAALEAEIAALKAEIAALKAKNAALEG [4H1103-AA]	-0.163
DKNAALKAKNAALKAEIAALEAEIAALEG [4H4033-AA]	-1.15
DEIAALEAKIAALKAEIAALEAKNAALEG [4H327-AA]	-0.644
DKNAALKAEIAALEAENAALEAKIAALEG [4H3605-AA]	0.557
DKIAALKAENAALEAKIAALEAKIAALKG [4H2726-AA]	1.94
DENAALEAEIAALEAKNAALKAEIAALKG [4H1082-AA]	-1.09

Indicate its recorded interaction score; the binder in question is DKIAALEAENAALEAKIAALEAENAALEG [4H2211-AA] 1.2
